target: Delta-type opioid receptor (Homo sapiens, UniProt P41143); test: Inhibition of binding of [3H]- -naltrindole (0.15 nM) to membranes from CHO cells expressing Opioid receptor delta 1; type: cell membranes
Sequence (P41143 whole entry): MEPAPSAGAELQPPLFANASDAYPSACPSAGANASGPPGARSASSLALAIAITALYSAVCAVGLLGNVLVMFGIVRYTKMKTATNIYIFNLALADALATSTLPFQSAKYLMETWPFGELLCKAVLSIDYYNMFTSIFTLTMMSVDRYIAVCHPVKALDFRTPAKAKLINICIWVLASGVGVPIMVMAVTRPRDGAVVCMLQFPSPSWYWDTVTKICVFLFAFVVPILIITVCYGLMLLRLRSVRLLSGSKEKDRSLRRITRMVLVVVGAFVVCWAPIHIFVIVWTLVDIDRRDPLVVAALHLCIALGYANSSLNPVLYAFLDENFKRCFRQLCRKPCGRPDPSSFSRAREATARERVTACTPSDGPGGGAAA
measure: pIC50
FYI, pIC50 means -log10 of a concentration in mol per litre.

As a guide, the following entries are already answered.
C=CCN1CCN(C(c2ccccc2)c2ccc(C(=O)N(CC)CC)cc2)CC1 (stereo in doubt; 6 {1} (2)) :: 8.10
CCN(CC)C(=O)c1ccc(C(c2ccccc2)N2CCN(CC3CCc4ccccc4C3)CC2)cc1 (stereo unspecified) :: 8.74
CCN(CC)C(=O)c1ccc(C(c2ccccc2)N2CCN(C3CCCC3)CC2)cc1 (stereo unspecified) :: 8.24
CCN(CC)C(=O)c1ccc(C(c2ccccc2)N2CCN(CCO)CC2)cc1 (stereo unspecified) :: 8.26

# input Quick check: pIC50 on Delta-type opioid receptor (Homo sapiens, UniProt P41143), item CCN(CC)C(=O)c1ccc(C(c2ccccc2)N(CCN(C)C)Cc2ccccc2)cc1 (stereo unspecified) ?
# output 7.15

# input Another compound to look at: CCN(CC)C(=O)c1ccc(C(NCC(C)(C)N)c2ccccc2)cc1 (stereo unspecified)
# output 6.92

###

The compounds listed here are annotated with their IC50.
target: Delta-type opioid receptor (Homo sapiens, UniProt P41143); assay: Inhibition of binding of [3H]- -naltrindole (0.15 nM) to membranes from CHO cells expressing Opioid receptor delta 1; type: cell membranes
Only the number, expressed in nM, is required.

See these solved cases before continuing.
CCCN1CCN(C(c2ccccc2)c2ccc(C(=O)N(CC)CC)cc2)CC1 (centres undefined) :: 11.4
CCN(CC)C(=O)c1ccc(C(c2ccccc2)N2CCNC3CCCCC32)cc1 (centres undefined) :: 29
CCN(CC)C(=O)c1ccc(C(c2ccccc2)N2CCN(Cc3ccc4c(c3)OCO4)CC2)cc1 (centres undefined) :: 1.4

# input Any idea what IC50 was measured for "CCN(CC)C(=O)c1ccc([C@H](c2ccccc2)N2C[C@@H](C)N(Cc3ccc4c(c3)OCO4)C[C@@H]2C)cc1" ?
# output 0.54

# input Moving on to C=CCN1CCN(C(c2ccccc2)c2ccc(C(=O)N(CC)CC)cc2)CC1 (stereo in doubt; 2)
# output 4.1

# input And C=CCN1CCN(C(c2ccccc2)c2ccc(C(=O)N(CC)CC)cc2)CC1 (stereo in doubt; 7 {1} (2)) ?
# output 8

###

target: Delta-type opioid receptor (Homo sapiens); test: Compound was tested for inhibition of binding of [3H]- -naltrindole (0.15 nM) to membranes from CHO cells expressing human delta opioid receptor; assay type: cell membranes
measure: IC50 (nM)
Could you give me the number in nM? Just the number is fine.

# input Return reported IC50; argument: C=CCN1CCCN(C(c2ccccc2)c2ccc(C(=O)N(CC)CC)cc2)CC1 (stereo unspecified)
# output 13

###

Measured pIC50 by item
molecular target: Kappa-type opioid receptor (Cavia porcellus); assay: Binding affinity towards Opioid receptor kappa 1 using [3H]- U-69,593 (1.5 nM) as radioligand in guinea pig brain membranes
Sequence (P41144 whole entry): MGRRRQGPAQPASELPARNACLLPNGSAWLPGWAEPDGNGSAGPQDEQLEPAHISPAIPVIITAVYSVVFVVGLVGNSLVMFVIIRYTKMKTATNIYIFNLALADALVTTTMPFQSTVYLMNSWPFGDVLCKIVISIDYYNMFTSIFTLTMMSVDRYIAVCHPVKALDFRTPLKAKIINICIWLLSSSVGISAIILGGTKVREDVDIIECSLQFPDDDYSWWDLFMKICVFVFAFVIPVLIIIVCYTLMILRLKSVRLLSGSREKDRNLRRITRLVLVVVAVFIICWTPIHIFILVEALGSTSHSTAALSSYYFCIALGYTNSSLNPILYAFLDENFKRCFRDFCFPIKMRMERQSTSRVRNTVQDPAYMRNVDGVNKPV
Field pIC50 (float): negative decimal logarithm of the concentration in molar.

Example cases with answers are listed next.
CCN(CC)C(=O)c1ccc(C(c2ccccc2)N(CCN(C)C)Cc2ccccc2)cc1 (centres undefined) :: 6.32
CCN(CC)C(=O)c1ccc(C(c2ccccc2)N2CCN(Cc3ccc4c(c3)OCO4)CC2)cc1 (centres undefined) :: 5.41
C=CCN1CCN(C(c2ccccc2)c2ccc(C(=O)N(CC)CC)cc2)CC1 (stereo in doubt; 2) :: 5.70

# input # get_value(readout= pIC50, system= Kappa-type opioid receptor (Cavia porcellus)) for "C=CCN1C[C@H](C)N([C@H](c2ccc(C(=O)N(CC)CC)cc2)c2cccc(OC)c2)C[C@H]1C"
# output 5.39

###

molecular target: Delta-type opioid receptor (Homo sapiens); assay: Inhibition of binding of [3H]- -naltrindole (0.15 nM) to membranes from CHO cells expressing Opioid receptor delta 1; type: cell membranes
Below is a list of entries, each paired with its recorded pIC50 value.
Friendly reminder that pIC50 comes from taking -log10 of the concentration in mol/L.

Below, each entry is followed by its recorded pIC50 result.
CCN(CC)C(=O)c1ccc(C(c2ccccc2)N2CCN(c3ccc(O)cc3)CC2)cc1 (stereo not drawn) :: 8.00
CCN(CC)C(=O)c1ccc(C(c2ccccc2)N2CC(C)NC(C)C2)cc1 (stereo not drawn) :: 7.38

Read the next record carefully.
# input GET /values?readout=pIC50&item= CCN(CC)C(=O)c1ccc(C(c2ccccc2)N(CC)CCN(C)C)cc1 (stereo not drawn)
# output 6.07
